Where a name gives a salt, the structure may show the parent alone.
Recorded melting point values for a group of compounds are listed next.

Examples from the recorded data:
- compound: "CCOC(=O)N1CCn2c(nc(-c3ccncn3)cc2=O)C(NC(=O)c2ccccc2OC)C1 (racemic)"
  melting point: "182 to 184 °C"
- compound: "COc1cc(Cl)ccc1C(=O)NC1CNCCn2c1nc(-c1ccncn1)cc2=O (single isomer, unassigned; (+))"
  melting point: "240 to 242 °C"

IN: # query: melting point of entry COc1cc(Cl)ccc1C(=O)NC1CN(C2CCCC2)CCn2c1nc(-c1ccncn1)cc2=O (racemic) (as salt: HCl)
OUT: 243 to 245 °C

IN: # query: melting point of entry CCOC(=O)N1CCn2c(nc(-c3ccncc3)cc2=O)C(NC(=O)c2ccc(F)cc2OC)C1 (racemic)
OUT: 210 to 212 °C
